System: Zymoseptoria tritici (SEPTTR-184)
Assay: Efficacy of target gene fragments (MgCytB dsRNA tiles) on wheat plants, SEPTTR-184
Type: in vivo
Set-up: scale not given here
Conditions: 50 ppm; 3DC (curative)
quantityName: Average of 2 trials SEPTTR-184 3DC
One number for each entry.

Here's what some known entries look like.
molecule: MgCytB-T5: 172 bp dsRNA of Zymoseptoria CytB region T5, location 173-344 (SEQ ID NO:8) (nucleic acid, listed as Zymoseptoria tritici, complementary strand of dsRNA) TATCTGAAGCATTTAACTCAGTTGAACACATAATGAGAGATGTAAACAATGGATGACTTATACGTTATCTTCACTCTAATACTGCTTCAGCTTTCTTCTTTTTAGTTTACCTGCACGTGGGTAGAGGGTTATACTACGGGTCATACAAAGCCCCTAGAACATTAACATGAAC
Average of 2 trials SEPTTR-184 3DC: 72
//
molecule: MgCytB-T1: 267 bp dsRNA of Zymoseptoria CytB region 1, location 364-630 (SEQ ID NO:4) (nucleic acid, listed as Zymoseptoria tritici, complementary strand of dsRNA) GTTCTGATGATGGCAACCGCATTCTTAGGGTATGTATTACCTTATGGTCAAATGTCTTTATGAGGAGCAACAGTTATAACTAACTTATTGAGTGCAATACCTTGAGTTGGACAAGACATAGTTGAATTCGTATGAGGTGGATTTTCTGTTAACAATGCAACATTGAACAGATTCTTTGCTCTACATTTCGTTTTACCGTTTGTGTTAGCTGCATTAGTTTTAATGCATCTAATAGCTTTACACGATACAGCGGGTTCAGGAAATCCT
Average of 2 trials SEPTTR-184 3DC: 79
//
molecule: MgCytB-T6: 258 bp dsRNA of Zymoseptoria CytB region T6, location 775-1032 (SEQ ID NO:9) (nucleic acid, listed as Zymoseptoria tritici, complementary strand of dsRNA) GTTATGGCTAACCCTATGCAAACTCCACCTGCTATAGTGCCTGAATGATATTTATTACCTTTCTACGCTATACTAAGATCAATACCTAACAAACTATTAGGTGTGATCGCAATGTTTTCTGCTATATTGATTATAATGATAATGCCAATTACCGATTTAGGTAGAAGTAGAGGATTACAGTTTAGACCTTTAAGCAAGATCACATTTTACATATTTGTTGCTAACTTCTTAGTATTAATGCAATTAGGTGCTAATCAC
Average of 2 trials SEPTTR-184 3DC: 64

Let's switch to this molecule now.
Task: # return recorded Average of 2 trials SEPTTR-184 3DC for input MgCytB-T4: 219 bp dsRNA of Zymoseptoria CytB region T4, location 1-219 (SEQ ID NO:7) (nucleic acid, listed as Zymoseptoria tritici, complementary strand of dsRNA) ATGAGGATTTGGAAGAGTCACCCTTTATTTAGTCTGGTTAATGGTTATCTTATCGATTCACCACAACCAAGTAATCTAAGCTATCTATGAAATTTCGGTTCATTACTGGGATTTTGTCTTGTAATACAAATCGTTACTGGTGTTACACTTGCTATGCATTATAACCCTAGCGTATCTGAAGCATTTAACTCAGTTGAACACATAATGAGAGATGTAAAC
Result: 81
